Listed here: items and their measured molar heat capacity at constant pressure.
- Method notes: molar heat capacity at constant pressure
- Reported conditions: 342.65 K; 101.33 kPa; Liquid; Small sample (50 mg) DSC
Answer format: numeric, J/K/mol implied, no suffix.

Smiles data	Measured value
NCCCCCCCN	339.3
NCCN	176.59
NCCCCN	241.32
NCCCCCCN	305.25
NCCCN	208.73

Now look at this one.
[in] Tell me molar heat capacity at constant pressure reported for NCCCCCCCCCN
[out] 404.04

---

- Method notes: molar heat capacity at constant pressure
- Reported conditions: 348.65 K; 101.33 kPa; Liquid; Small sample (50 mg) DSC
Give TRUE when the value for molar heat capacity at constant pressure is at least 300 J/K/mol. Give FALSE when it is less.

As a guide, the following entries are already answered.
Compound	Assigned class
NCCCCN [1,4-butanediamine]	FALSE
NCCCCCCCCCN [1,9-diaminononane]	TRUE
NCCN [ethane-1,2-diamine]	FALSE
NCCCCCCCN [1,7-diaminoheptane]	TRUE

Query compound follows.
[in] Determine whether this compound has molar heat capacity at constant pressure no lower than 300 J/K/mol: NCCCN [1,3-propanediamine]
[out] FALSE

---

- Method notes: molar heat capacity at constant pressure
- Reported conditions: 320.15 K; 101.33 kPa; Liquid; Small sample (50 mg) DSC
Label y when molar heat capacity at constant pressure is at or above 300 J/K/mol; anything below gets n.

Smiles data	Assigned class
NCCN	n

[in] # check: molar heat capacity at constant pressure of NCCCCN is greater than or equal to 300 J/K/mol
[out] n

---

Each entry below carries its recorded molar heat capacity at constant pressure.
- Method notes: molar heat capacity at constant pressure
- Reported conditions: 341.15 K; 101.33 kPa; Liquid; Small sample (50 mg) DSC
Numbers after ± are expanded uncertainties.
Answers without a unit are incomplete; give the number and then its unit.

Some entries whose results are on file:
Smiles data	Measured value
NCCCCCCN	304.95 ± 4.7 J/K/mol
NCCN	176.44 ± 2.7 J/K/mol
NCCCCN	241.11 ± 3.7 J/K/mol

[in] Please give the documented molar heat capacity at constant pressure of NCCCCCCCCCN
[out] 403.67 ± 6.2 J/K/mol

[in] Given the compound NCCCN , write its reported molar heat capacity at constant pressure.
[out] 208.56 ± 3.2 J/K/mol

[in] Using the record for NCCCCCCCN , state its measured molar heat capacity at constant pressure.
[out] 338.98 ± 5.2 J/K/mol

---

- Method notes: molar heat capacity at constant pressure
- Reported conditions: 330.65 K; 101.33 kPa; Liquid; Small sample (50 mg) DSC
Strictly below 200 J/K/mol in molar heat capacity at constant pressure: fulfilled. Otherwise: not fulfilled.

Illustrative cases are given below, each with its answer.
Compound	Assigned class
NCCCCCCCCCN [1,9-diaminononane]	not fulfilled
NCCN [ethane-1,2-diamine]	fulfilled

// next entry
[in] Record NCCCCCCN [1,6-hexanediamine] : is its molar heat capacity at constant pressure strictly below 200 J/K/mol?
[out] not fulfilled

---

Quick reference: molar heat capacity at constant pressure of the listed items.
- Method notes: molar heat capacity at constant pressure
- Reported conditions: 332.15 K; 101.33 kPa; Liquid; Small sample (50 mg) DSC
Please give a number only; it is taken to be in J/K/mol.

Smiles data	molar heat capacity at constant pressure (J/K/mol)
NCCCCCCCCCN	401.72
NCCCCN	239.98
NCCN	175.58
NCCCCCCCN	337.18
NCCCCCCN	303.4

Kindly review the next compound as well.
[in] Item NCCCN : provide molar heat capacity at constant pressure
[out] 207.5

---

- Method notes: molar heat capacity at constant pressure
- Reported conditions: 315.65 K; 101.33 kPa; Liquid; Small sample (50 mg) DSC
Define the label as fulfilled when molar heat capacity at constant pressure is strictly less than 300 J/K/mol and as not fulfilled in all remaining cases.

The examples below pair each entry with its known result.
Molecule	Assigned class
NCCCCCCCCCN [1,9-diaminononane]	not fulfilled
NCCCCCCCN [1,7-diaminoheptane]	not fulfilled
NCCCN [1,3-propanediamine]	fulfilled
NCCCCN [1,4-butanediamine]	fulfilled

--- query ---
[in] Criterion: molar heat capacity at constant pressure strictly below 300 J/K/mol. Is it met by NCCN [ethane-1,2-diamine] ?
[out] fulfilled

---

- Method notes: molar heat capacity at constant pressure
- Reported conditions: 353.15 K; 101.33 kPa; Liquid; Small sample (50 mg) DSC
Everything with molar heat capacity at constant pressure lower than 200 J/K/mol is 0; everything else, including exactly 200 J/K/mol, is 1.

Smiles data	Assigned class
NCCCN	1
NCCCCCCCCCN	1
NCCCCN	1
NCCN	0

[in] Item NCCCCCCN with molar heat capacity at constant pressure of 200 J/K/mol or above?
[out] 1

[in] Can NCCCCCCCN be said to have molar heat capacity at constant pressure at or above 200 J/K/mol?
[out] 1

---

- Method notes: molar heat capacity at constant pressure
- Reported conditions: 327.65 K; 101.33 kPa; Liquid; Small sample (50 mg) DSC
Endpoint name: molar heat capacity at constant pressure (J/K/mol)
# output: bare number, implied unit J/K/mol

Smiles data	Endpoint name	Measured value
NCCCCCCCN	molar heat capacity at constant pressure	336.38
NCCCCCCN	molar heat capacity at constant pressure	302.74

Turning now to a further molecule:
[in] Return molar heat capacity at constant pressure for the following molecule: NCCN
[out] 175.15

---

The following compounds are shown together with reported molar heat capacity at constant pressure values.
- Method notes: molar heat capacity at constant pressure
- Reported conditions: 320.15 K; 101.33 kPa; Liquid; Small sample (50 mg) DSC
Give the number; J/K/mol is assumed, so skip it.

Compound	molar heat capacity at constant pressure (J/K/mol)
NCCCCCCCN [1,7-diaminoheptane]	335.15
NCCCN [1,3-propanediamine]	206.08
NCCCCCCN [1,6-hexanediamine]	301.77

We next turn to a different compound, shown below.
[in] State, in one line, measured molar heat capacity at constant pressure of NCCCCCCCCCN [1,9-diaminononane]
[out] 399.82

---

Attribute: molar heat capacity at constant pressure
- Method notes: molar heat capacity at constant pressure
- Reported conditions: 330.65 K; 101.33 kPa; Liquid; Small sample (50 mg) DSC
± gives the expanded uncertainty stated by the source.
Show the value, then the unit it is measured in.

Smiles data	Endpoint name	Measured value
NCCCN	molar heat capacity at constant pressure	207.32 ± 3.2 J/K/mol
NCCCCCCCN	molar heat capacity at constant pressure	336.91 ± 5.2 J/K/mol

[in] Provide molar heat capacity at constant pressure value for the following molecule: NCCCCN
[out] 239.8 ± 3.7 J/K/mol
